# measurement target: Substance-P receptor (Homo sapiens, UniProt P25103)
# Sequence (P25103 whole entry): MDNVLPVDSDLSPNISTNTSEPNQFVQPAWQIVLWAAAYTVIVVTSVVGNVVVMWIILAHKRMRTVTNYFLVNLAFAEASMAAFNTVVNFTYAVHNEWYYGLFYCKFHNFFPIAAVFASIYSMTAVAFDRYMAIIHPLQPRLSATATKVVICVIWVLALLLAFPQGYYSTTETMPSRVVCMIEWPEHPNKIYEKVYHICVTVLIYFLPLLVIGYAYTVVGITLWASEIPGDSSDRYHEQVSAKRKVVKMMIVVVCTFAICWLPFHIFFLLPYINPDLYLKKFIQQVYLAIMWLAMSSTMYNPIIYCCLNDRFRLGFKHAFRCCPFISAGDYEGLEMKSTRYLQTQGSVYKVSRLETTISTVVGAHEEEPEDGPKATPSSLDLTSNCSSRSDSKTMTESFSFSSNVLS
IC50 listing for selected compounds.
Please respond with the number in nM and leave the unit unwritten.

Some entries whose results are on file:
>>> data_value("Cc1ccccc1-c1cc(N2CCN(C)CC2)ncc1N(C)C(=O)C(C)(C)c1cc(C(F)(F)F)cc(C(F)(F)F)c1 [NETUPITANT]")
0.95
>>> data_value("COc1ccccc1CN1CN2CCCC1C2c1ccccc1 (stereo not drawn)")
0.61

Next compound, please.
Qu. Hello, please tell me recorded IC50 for this one: COc1ccc(-n2cnnn2)cc1CN[C@H]1CCCN[C@H]1c1ccccc1
Ans. 0.04

====

half-life listing for selected molecules.
# protocol notes: Half life in dog at 0.5 mg/kg, iv and 1 mg/kg, po
# Format: ADME, organism-based, Canis lupus familiaris
# condition parameters: in vivo
Please respond with the number in h and leave the unit unwritten.

>>> data_value("Cc1cc(F)ccc1[C@H]1C[C@@H](N2CCN3C(=O)CC[C@H]3C2)CCN1C(=O)N(C)[C@H](C)c1cc(C(F)(F)F)cc(C(F)(F)F)c1 [ORVEPITANT]")
6.1

Next molecule, please.
Qu. Hello, please tell me recorded half-life for this one: Cc1cc(F)ccc1[C@H]1C[C@H](N2CCN3C(=O)CC[C@H]3C2)CCN1C(=O)N(C)[C@H](C)c1cc(C(F)(F)F)cc(C(F)(F)F)c1
Ans. 5.1

====

Kp at 5 min listing for selected compounds.
# protocol notes: Ratio of drug uptake in brain to plasma in rat at 1 mg/kg, iv after 5 mins
# Assay type: ADME, organism-based
# Set-up: dose 1 mg/kg, route intravenous
# condition parameters: read-out: BPR
Give a plain numeric answer without units written out.

>>> data_value("Cc1cc(F)ccc1[C@H]1C[C@@H](N2CCN3C(=O)CC[C@H]3C2)CCN1C(=O)N(C)[C@H](C)c1cc(C(F)(F)F)cc(C(F)(F)F)c1 [ORVEPITANT]")
1.2

Next compound, please.
Qu. Hello, please tell me recorded Kp at 5 min for this one: Cc1cc(F)ccc1[C@H]1C[C@H](N2CCN3C(=O)CC[C@H]3C2)CCN1C(=O)N(C)[C@H](C)c1cc(C(F)(F)F)cc(C(F)(F)F)c1
Ans. 0.9

====

# protocol notes: Drug uptake in Mongolian gerbil brain at 1 mg/kg, po
# Assay type: ADME, organism-based, Meriones unguiculatus
# Parameters: dose 1 mg/kg, route oral
# condition parameters: in vivo
parameter measured: Drug uptake
For clarity, give the value followed by its unit.

Qu. Hello, please tell me recorded Drug uptake for this one: Cc1cc(F)ccc1[C@H]1C[C@@H](N2CCN3C(=O)CC[C@H]3C2)CCN1C(=O)N(C)[C@H](C)c1cc(C(F)(F)F)cc(C(F)(F)F)c1 [ORVEPITANT]
Ans. 91 ng/g

====

half-life listing for selected molecules.
# protocol notes: Half life in rat at 0.5 mg/kg, iv and 1 mg/kg, po
# Assay type: ADME, organism-based
# condition parameters: in vivo
Please respond with the number in h and leave the unit unwritten.

>>> data_value("Cc1cc(F)ccc1[C@H]1C[C@@H](N2CCN3C(=O)CC[C@H]3C2)CCN1C(=O)N(C)[C@H](C)c1cc(C(F)(F)F)cc(C(F)(F)F)c1 [ORVEPITANT]")
2.3

Qu. Hello, please tell me recorded half-life for this one: Cc1cc(F)ccc1[C@H]1C[C@H](N2CCN3C(=O)CC[C@H]3C2)CCN1C(=O)N(C)[C@H](C)c1cc(C(F)(F)F)cc(C(F)(F)F)c1
Ans. 2.8
